# Test system: MV-4-11 cells
# test-description: Cell proliferation assay (CellTiter-Glo), MV-4-11
# Type: cell-based, human
# applied-conditions: Homo sapiens, MV4-11, 96 h; MV-4-11 (MLL-AF4), 4 days incubation; read-out: Cell antiproliferation assay MV-4-11 IC50
pIC50: −log10 of the molar value.
measurement-kind: pIC50

C[C@H]1CCN[C@@H]1C(=O)N1CCC2(CC1)CN(c1ncnnc1Oc1ccc(F)cc1-c1cncnc1C1CC1)C2 = 7.76

A. N#Cc1ccc(-c2cc(F)ccc2Oc2nncnc2N2CC3(CCN(C(=O)[C@H]4NC[C@@H]5C[C@@H]54)CC3)C2)c(C2CC2)n1
B. [2H]C([2H])(C)N(C(=O)c1cc(F)ccc1Oc1nncnc1N1CC2(CCN(C(=O)[C@H]3NC[C@@H]4CCC[C@@H]43)CC2)C1)C(C)C
Ask | Select the item with the higher value of pIC50 from the options A and B listed. Output the label that corresponds to your choice.
Reply | B

====

# System: MV-4-11 cells
# test-description: Cell proliferation assay (CellTiter-Glo), MV-4-11
# Assay type: cell-based, human
# applied-conditions: Homo sapiens, MV4-11, 96 h; MV-4-11 (MLL-AF4), 4 days incubation; read-out: Cell antiproliferation assay MV-4-11 IC50
pIC50: −log10 of the molar value.
measurement-kind: pIC50

Past entries and their recorded results:
C[C@H]1COCCN1C(=O)c1cc(F)ccc1Oc1cncnc1N1CC2(CCN(C(=O)[C@@H]3C[C@@H](F)CN3)CC2)C1 = 6.10
CCN(C(=O)c1cc(F)ccc1Oc1cncnc1N1CC2(CCN(C(=O)[C@H]3NCC[C@@H]3O)CC2)C1)C(C)C = 6.48

P. CCN(C(=O)c1cc(F)ccc1Oc1cncnc1N1CC2(CCN(C(=O)[C@@H]3CCCCN3)CC2)C1)C(C)C
Q. CCN(C(=O)c1cc(F)ccc1Oc1cncnc1N1CC2(CCN(C(=O)[C@@H]3C[C@@H](F)CN3)CC2)C1)C(C)C
Ask | Of P and Q , whose reported pIC50 is the larger number? Return value: the label identifying the chosen record.
Reply | Q

====

# tested-target: hERG potassium channel (Homo sapiens)
# Sequence (Q12809 whole entry): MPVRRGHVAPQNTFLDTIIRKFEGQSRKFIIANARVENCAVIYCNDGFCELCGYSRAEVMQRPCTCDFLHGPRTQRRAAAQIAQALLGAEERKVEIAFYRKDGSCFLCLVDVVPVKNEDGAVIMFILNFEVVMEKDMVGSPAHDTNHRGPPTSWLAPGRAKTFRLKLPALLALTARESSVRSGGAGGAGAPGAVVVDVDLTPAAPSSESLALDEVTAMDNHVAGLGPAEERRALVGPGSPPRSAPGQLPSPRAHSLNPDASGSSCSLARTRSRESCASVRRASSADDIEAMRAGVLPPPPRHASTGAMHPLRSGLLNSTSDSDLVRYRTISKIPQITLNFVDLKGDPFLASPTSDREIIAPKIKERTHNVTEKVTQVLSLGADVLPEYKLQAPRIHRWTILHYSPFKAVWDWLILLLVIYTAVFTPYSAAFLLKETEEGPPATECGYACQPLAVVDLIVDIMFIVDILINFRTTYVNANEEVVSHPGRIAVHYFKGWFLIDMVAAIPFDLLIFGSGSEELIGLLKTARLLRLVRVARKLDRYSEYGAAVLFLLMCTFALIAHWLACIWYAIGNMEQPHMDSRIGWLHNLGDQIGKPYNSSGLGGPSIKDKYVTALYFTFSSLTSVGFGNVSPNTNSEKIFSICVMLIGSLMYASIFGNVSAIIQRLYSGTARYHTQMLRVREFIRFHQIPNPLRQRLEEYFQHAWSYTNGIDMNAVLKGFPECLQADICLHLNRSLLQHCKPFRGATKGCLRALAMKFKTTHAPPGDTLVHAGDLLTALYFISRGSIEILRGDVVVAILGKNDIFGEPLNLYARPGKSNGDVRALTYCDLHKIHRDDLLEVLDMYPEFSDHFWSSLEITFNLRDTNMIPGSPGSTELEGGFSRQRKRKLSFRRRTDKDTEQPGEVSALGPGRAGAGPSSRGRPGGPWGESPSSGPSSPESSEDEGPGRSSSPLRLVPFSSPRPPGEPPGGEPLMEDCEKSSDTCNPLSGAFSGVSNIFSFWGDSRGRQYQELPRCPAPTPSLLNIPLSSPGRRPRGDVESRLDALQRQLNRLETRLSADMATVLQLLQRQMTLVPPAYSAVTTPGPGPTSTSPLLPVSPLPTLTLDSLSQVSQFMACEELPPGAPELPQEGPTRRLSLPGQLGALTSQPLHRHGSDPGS
# test-description: hERG inhibition study (Qpatch, CHO-hERG cells)
# applied-conditions: highest test concentration 40 μM
pIC50: −log10 of the molar value.
measurement-kind: pIC50

Example results:
O=C([C@H]1NC[C@@H]2CCC[C@@H]21)N1CCC2(CC1)CN(c1ncnnc1Oc1ccc(F)cc1-c1cncnc1C1CC1)C2 = 4.53
CCN(C(=O)c1cc(F)ccc1Oc1nncnc1N1CC2(CCN(C(=O)[C@@H]3C[C@@H](C)CN3)CC2)C1)C(C)C = < 4.40
CCN(C(=O)c1cc(F)ccc1Oc1nncnc1N1CC2(CCN(C(=O)[C@H]3NC[C@H]4[C@@H]3C4(C)C)CC2)C1)C(C)C (stereo in doubt) = < 4.40

Ask | What value of pIC50 has been reported for the following compound? "CCN(C(=O)c1cc(F)ccc1Oc1nncnc1N1CC2(CCN(C(=O)[C@H]3NC[C@@H]4C[C@@H]43)CC2)C1)C(C)C"
Reply | < 4.40

Ask | For the compound CCN(C(=O)c1cc(F)ccc1Oc1cncnc1N1CC2(CCN(C[C@H]3CC[C@H](NS(=O)(=O)CC)CC3)CC2)C1)C(C)C [SNDX-5613, reference compound] , what pIC50 is on record?
Reply | 5.02

Ask | Which pIC50 value belongs to "CCN(C(=O)c1cc(F)ccc1Oc1nncnc1N1CC2(CCN(C(=O)[C@H]3NC[C@@H]4CCC[C@@H]43)CC2)C1)C(C)C" ?
Reply | < 4.40

====

# Test system: MOLM13 cells
# test-description: Cell proliferation assay (CellTiter-Glo), MOLM13
# Format: cell-based, human
# applied-conditions: MOLM13 (MLL-AF9), 12 days incubation; read-out: Cell antiproliferation assay MOLM13 IC50
measurement-kind: IC50 (nM)
# value in nM; strip the unit string

Ask | What measured IC50 goes with CCN(C(=O)c1cc(F)ccc1Oc1cncnc1N1CC2(CCN(C[C@H]3CC[C@H](NS(=O)(=O)CC)CC3)CC2)C1)C(C)C [SNDX-5613, reference compound] ?
Reply | 21.6

====

# tested-target: Menin-MLL1 (Homo sapiens, UniProt O00255)
# Construct: Menin (2-610) isform2; purchased ChemPartner 2020111101
# Sequence (O00255 2-610): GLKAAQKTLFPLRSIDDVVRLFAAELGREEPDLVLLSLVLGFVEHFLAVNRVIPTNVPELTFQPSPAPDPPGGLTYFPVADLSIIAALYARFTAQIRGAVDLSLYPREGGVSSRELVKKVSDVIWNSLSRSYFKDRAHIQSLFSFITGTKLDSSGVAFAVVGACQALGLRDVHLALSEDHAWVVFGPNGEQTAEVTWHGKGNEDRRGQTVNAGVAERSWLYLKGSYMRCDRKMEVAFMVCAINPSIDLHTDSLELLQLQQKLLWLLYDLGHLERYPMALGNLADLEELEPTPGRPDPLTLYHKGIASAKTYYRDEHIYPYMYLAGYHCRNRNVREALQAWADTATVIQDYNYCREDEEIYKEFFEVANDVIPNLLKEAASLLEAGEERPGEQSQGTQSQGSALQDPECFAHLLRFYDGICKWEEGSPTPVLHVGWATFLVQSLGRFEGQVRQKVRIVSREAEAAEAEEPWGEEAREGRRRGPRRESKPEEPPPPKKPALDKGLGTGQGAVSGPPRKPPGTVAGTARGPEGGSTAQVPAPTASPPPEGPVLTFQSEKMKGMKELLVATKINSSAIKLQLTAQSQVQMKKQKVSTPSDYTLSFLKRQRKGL
# test-description: Menin-MLL1 inhibition assay (fluorescence polarization, Menin protein + FAM-MLL peptide)
# Assay type: binding
# applied-conditions: Menin (2-610) isoform 2, FAM-labelled MLL peptide, mP readout; read-out: Biochemical assay Menin-MLL1 IC50
measurement-kind: IC50 (nM)

P. CC(C)N(CC(F)F)C(=O)c1cc(F)ccc1Oc1cncnc1N1CC2(CCN(C(=O)[C@@H]3C[C@@H](F)CN3)CC2)C1
Q. CCN(C(=O)c1cc(F)ccc1Oc1cncnc1N1CC2(CCN(C(=O)[C@@H]3CCCCN3)CC2)C1)C(C)C
Ask | # return whichever of P and Q has the smaller IC50 Give the label of your selection.
Reply | P

====

# Tested on: MV-4-11 cells
# test-description: Cell proliferation assay (CellTiter-Glo), MV-4-11
# Assay type: cell-based, human
# applied-conditions: Homo sapiens, MV4-11, 96 h; MV-4-11 (MLL-AF4), 4 days incubation; read-out: Cell antiproliferation assay MV-4-11 IC50
measurement-kind: IC50 (nM)

Recorded results for 6 molecules are shown here.
CCN(C(=O)c1cc(F)ccc1Oc1cncnc1N1CC2(CCN(C(=O)[C@H]3NCC[C@H]3C)CC2)C1)C(C)C = 26.2
CC(C)N(C(=O)c1cc(F)ccc1Oc1nncnc1N1CC2(CCN(C(=O)[C@H]3NCC[C@@H]3C)CC2)C1)C(C)C = 9.6
CCN(C(=O)c1cc(F)ccc1Oc1cncnc1N1CC2(CCN(C(=O)[C@@H]3C[C@]4(C)C[C@@H]4N3)CC2)C1)C(C)C = 33.8
CCN(C(=O)c1cc(F)ccc1Oc1cncnc1N1CC2(CCN(C(=O)[C@]3(C)CCCN3)CC2)C1)C(C)C = 134
[2H]c1c(F)cc(C(=O)N(CC)C(C)C)c(Oc2cncnc2N2CC3(CCN(C(=O)[C@@H]4C[C@@H](F)CN4)CC3)C2)c1[2H] = 41
C[C@@H]1COCCN1C(=O)c1cc(F)ccc1Oc1cncnc1N1CC2(CCN(C(=O)[C@@H]3C[C@@H](F)CN3)CC2)C1 = 221

P. CCN(C(=O)c1cc(F)ccc1Oc1cncnc1N1CC2(CCN(C(=O)[C@@H]3C[C@@H]4C[C@@H]4N3)CC2)C1)C(C)C
Q. CCN(C(=O)c1cc(F)ccc1Oc1cncnc1N1CC2(CCN(C(=O)[C@H]3NCc4ccccc43)CC2)C1)C(C)C
R. N#Cc1ccc(-c2cc(F)ccc2Oc2nncnc2N2CC3(CCN(C(=O)[C@H]4NC[C@@H]5C[C@@H]54)CC3)C2)c(C2CC2)c1
Ask | Arrange these molecules by their IC50, starting with the largest number. Provide the ranking by listing each label in its place in the requested order.
Reply | P, Q, R
